# Test system: lacZ under control of the tetA promoter (PtetA) in E. coli KM3
# Type: cell-based
# Condition Info: Table 4; ethametsulfuron 20 ppm; 48 hrs at 30° C.
Property: relative β-galactosidase activity, inducer Es

| Molecule | Recorded Value |
| --- | --- |
| L1-24: SU-responsive TetR(B) variant, library L1 hit (protein, Sulfonylurea responsive repressor L1-24) MGSRLDKSKVINSALELLNEVGIEGLTTRKLAQKLGVEQPTLYWHVKNKRALLDALAIEMLDRHNTHFCPLEGESWQDFLRNSAKSMRCALLSHRDGAKVLLGTAVTEKQYETTENSLAFLCQQGFSLENALYAIRAVRTFTLGCVLVDQERQVAKEERETPTTDSMPPLLRQAKELLDHQGAEPAFLFGLELIICGLEKQLKCESGS | 0.2 |
| L1-29: SU-responsive TetR(B) variant, library L1 hit, SEQ ID NO: 10 (protein, Sulfonylurea responsive repressor L1-29) MGSRLDKSKVINSALELLNEVGIEGLTTRKLAQKLGVEQPTLYWHVKNKRALLDALAIEMMDRHQTHFCPLEGESWQDFLRNTAKSMRCALLSHRDGAKVWLGTRWTEKQYETPENMLAFLCQQGFSLENALYAWSAVCNFTLGCVLSDQERQVAKEERETPTTDSMPPLLRQAWELSDHQGAEPAFLFGLELIICGLEKQLKCESGS | 1.7 |
